system: Sam68 (KHDRBS1); assay: compounds binding KHDRBS1 protein – biochemical, small-molecule microarray, 635 nm fluorescence, primary screen (AID 1125); settings: higher = more signal;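 also: score merges 667 nm channel intensity with signal to noise over triplicate slides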
Cut-off 0.8 on composite z-score, inclusive. At or above means Fulfilled; below means Not fulfilled.

Here's what some known entries look like.
>>> answer_label("CO[C@H]1O[C@H](CO)[C@@H](OC(=O)Nc2cccc(F)c2)[C@H](OC(=O)Nc2ccc3c(c2)OCO3)[C@H]1OC(=O)Nc1ccc2c(c1)OCO2")
"Fulfilled"
>>> answer_label("NC(=O)NCC#Cc1ccc2c(c1)[C@]1(C(=O)N2)[C@H](c2ccc(O)cc2)N2[C@H](c3ccccc3)[C@H](c3ccccc3)OC(=O)[C@H]2[C@@H]1C(=O)NC[C@H](O)c1ccccc1")
"Not fulfilled"
>>> answer_label("CC(C)CN1C(=O)[C@@]2(Cc3ccccc31)c1ccccc1C(=O)N(Cc1ccccc1)[C@H]2c1ccc(CO)cc1")
"Not fulfilled"

Say whether C[C@]12C(=O)N(CCCCCO)[C@@H]3C(=O)N(c4ccc(Cl)cc4)CC=CC31O[C@@H]1/C=C\CCCOC(=O)C12 (stereo partly drawn) shows composite z-score of 0.8 or more. Not fulfilled

Subsequent entry: O=C1O[C@H](c2ccccc2)[C@H](c2ccccc2)N2[C@H]1[C@@H](C(=O)N1CCN(c3ncccn3)CC1)[C@]1(C(=O)Nc3ccc(C#CCCO)cc31)[C@H]2c1ccccc1OCCO Fulfilled

Can you check Cc1ccc(S[C@]2(C(=O)NCCN3CCOCC3)CC(=O)N(C3Cc4ccccc4C3)[C@@H]2c2ccc(CO)cc2)cc1 next? Not fulfilled

Record: COC(=O)c1ccc(OC)c(/C=C\CC(CCc2ccccc2)OC(=O)c2ccncc2)c1 (stereo not drawn) Not fulfilled

Entry to check: CCCCCCC#C[Si](O[C@H](c1ccccc1)c1cn(Cc2cccc(Cl)c2)nn1)(C(C)C)C(C)C Not fulfilled

// next record C=CCNC(=O)[C@H]1[C@@H]2C(=O)O[C@@H](c3ccccc3)[C@@H](c3ccccc3)N2[C@@H](c2ccc(OCCO)cc2)[C@]12C(=O)N(C(=O)OCCOC)c1ccc(C#CC3=CCCCC3)cc12 Fulfilled

Here is the next compound: COc1ccc([Si](C)(C)[C@@H]2[C@@H](CC(=O)N(CCO)Cc3ccccc3)O[C@]3(C(=O)N(C)c4c(Br)cc(C)cc43)[C@H]2C)cc1 Not fulfilled

For COc1ccc([Si](C)(C)[C@H]2[C@H](CCn3cc(CCO)nn3)O[C@@]3(C(=O)N(Cc4cccc(N5C(=O)c6cccc7cccc5c67)c4)c4ccccc43)[C@@H]2C)cc1 then? Fulfilled

Check C=C(COC)/C(=C/C[C@@H](OC(=O)c1ccncc1)c1cccc(OCCO)c1)c1cc(C(=O)OC)ccc1OC too. Fulfilled

---

biological target: Calmodulin-1 (Homo sapiens); assay: small molecules binding calmodulin-1 with EGTA – biochemical, small-molecule microarray, Cy5-labelled CALM1, profiling panel (AID 1111); details: Cy5-CALM1 binding fluorescence, higher = more signal;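 also: labelled calmodulin applied in Tris saline Tween buffer holding calcium plus EGTA and DTT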
ENDPOINT LABEL: composite z-score
Please respond with just the number, no unit label.

Recorded results for 5 molecules are shown here.
>>> measured_value("CCOC(=O)C1=CC[C@@H](c2cccc(Br)c2)N(S(=O)(=O)c2ccc(C)cc2)[C@H]1c1ccc([N+](=O)[O-])cc1")
0.855
>>> measured_value("[N-]=[N+]=NCc1ccccc1C[C@]1(C(=O)NCCN2CCOCC2)COC(c2ccc(OCCCO)cc2)=N1")
0.74
>>> measured_value("CCOc1cc(C(O)C2C=CC3C(=O)NC(=O)C3N2Nc2ccccn2)ccc1O (stereo unspecified)")
0.384
>>> measured_value("CN(C)CCCC[C@@H]1NC(=O)[C@H]2C[C@@H](C(=O)NCCCCCCNC(=O)CS)[C@@H](c3ccc(O)cc3)N2C1=O")
-0.445
>>> measured_value("COCCOC(=O)N1C(=O)[C@@]2(c3cc(C#Cc4ccc(OC)cc4)ccc31)[C@H](C(=O)N1CCc3cc(OC)c(OC)cc3C1)[C@H]1C(=O)O[C@H](c3ccccc3)[C@H](c3ccccc3)N1[C@@H]2c1ccc(OCCO)cc1")
1.24

Read the next record carefully.
Find the measured composite z-score: item COCCOC(=O)N1C(=O)[C@@]2(c3cc(C#CCCO)ccc31)[C@H](C(=O)NC[C@H](O)c1ccccc1)[C@H]1C(=O)O[C@H](c3ccccc3)[C@H](c3ccccc3)N1[C@@H]2c1ccccc1OCCO , target or system Calmodulin-1 (Homo sapiens). 0.362

Origin of measurements: PubChem BioAssay
